All figures here come from ChEMBL document CHEMBL3616436.

Catalogue of zone of inhibition at 400 µg/disc readings, one per entry.
- Tested on: Bacillus cereus
- method_notes: Antimicrobial activity against Bacillus cereus ATCC 11778 at 400 ug after 18 hrs by disc-diffusion method
- Assay type: functional
- test_conditions: ATCC 11778, 18 h, read-out: IZ
I only need the number, in mm, no unit after it.

These recorded examples may help you get a feel for the data.
N#Cc1ccc(NC(=S)Nc2cccc(C(F)(F)F)c2)cc1
19
O=[N+]([O-])c1ccc(NC(=S)Nc2cccc(C(F)(F)F)c2)cc1
15
FC(F)(F)c1cccc(NC(=S)Nc2cccc(Cl)c2)c1
23
O=C(NC(=S)Nc1cccc(C(F)(F)F)c1)c1ccccc1
14

Incoming: Form field: zone of inhibition at 400 µg/disc recorded for COC(=O)c1ccccc1NC(=S)Nc1cccc(C(F)(F)F)c1 with Bacillus cereus (enter value)
Outgoing: 19

----------
- method_notes: Cytotoxicity against BHK cells assessed as cell viability after 48 to 96 hrs by MTT assay
- Format: cell-based, Mesocricetus auratus
- test_conditions: hamster
observable: CC50 (µM)
I only need the number, in µM, no unit after it.

FC(F)(F)c1cccc(NC(=S)Nc2ccccc2)c1
41
Fc1cccc(NC(=S)Nc2cccc(C(F)(F)F)c2)c1
9.4

Incoming: # input molecule: FC(F)(F)c1cccc(NC(=S)Nc2ccc(Cl)cc2)c1 ; wanted: its CC50
Outgoing: 10

Incoming: # input molecule: FC(F)(F)c1cccc(NC(=S)Nc2ccc(I)cc2)c1 ; wanted: its CC50
Outgoing: 9.4

Incoming: # input molecule: FC(F)(F)c1cccc(NC(=S)Nc2cccc(Br)c2)c1 ; wanted: its CC50
Outgoing: 10

----------
- method_notes: Cytotoxicity against African green monkey Vero 76 cells assessed as cell viability after 48 to 96 hrs by crystal violet staining
- Type: cell-based
- test_conditions: chlorocebus sabaeus
Catalogue of CC50 readings, one per entry.
I only need the number, in µM, no unit after it.

N#Cc1ccc(NC(=S)Nc2cccc(C(F)(F)F)c2)cc1
10
CCOC(=O)c1ccc(NC(=S)Nc2cccc(C(F)(F)F)c2)cc1
71
FC(F)(F)c1cccc(NC(=S)Nc2cccc(Cl)c2)c1
20

Incoming: # input compound: FC(F)(F)c1cccc(NC(=S)Nc2cccc(Br)c2)c1 ; wanted: its CC50
Outgoing: 14

Incoming: # input compound: FC(F)(F)c1cccc(NC(=S)Nc2ccccc2Br)c1 ; wanted: its CC50
Outgoing: 50

Incoming: # input compound: Fc1cccc(NC(=S)Nc2cccc(C(F)(F)F)c2)c1 ; wanted: its CC50
Outgoing: 20

----------
Catalogue of CC50 readings, one per entry.
- method_notes: Cytotoxicity against BHK cells assessed as cell viability after 48 to 96 hrs by MTT assay
- Type: cell-based, Mesocricetus auratus
- test_conditions: hamster
I only need the number, in µM, no unit after it.

FC(F)(F)c1cccc(NC(=S)NC2CCCCC2)c1
14

Incoming: # input compound: COc1cccc(NC(=S)Nc2cccc(C(F)(F)F)c2)c1 ; wanted: its CC50
Outgoing: 12

Incoming: # input compound: N#Cc1ccc(NC(=S)Nc2cccc(C(F)(F)F)c2)cc1 ; wanted: its CC50
Outgoing: 9.5

Incoming: # input compound: Fc1ccc(NC(=S)Nc2cccc(C(F)(F)F)c2)cc1Cl ; wanted: its CC50
Outgoing: 10

----------
- method_notes: Cytotoxicity against African green monkey Vero 76 cells assessed as cell viability after 48 to 96 hrs by crystal violet staining
- Type: cell-based
- test_conditions: chlorocebus sabaeus
Response field label takes true when CC50 is strictly below 40 µM and false in all other cases.

C[C@@]1(O)[C@H](O)[C@@H](CO)O[C@H]1n1ccc(N)nc1=O
false
C=C(C)CNC(=S)Nc1cccc(C(F)(F)F)c1
false
FC(F)(F)c1cccc(NC(S)=NCCN2CCOCC2)c1
false
FC(F)(F)c1cccc(NC(=S)NCc2ccco2)c1
false
Fc1ccccc1NC(=S)Nc1cccc(C(F)(F)F)c1
false
Cc1ccc(NC(=S)Nc2cccc(C(F)(F)F)c2)cc1Cl
true

Continue with the next compound.
Incoming: Say whether its CC50 is strictly beneath 40 µM. Entry: CCCCc1ccc(NC(=S)Nc2cccc(C(F)(F)F)c2)c(C)c1
Outgoing: true

----------
Catalogue of CC50 readings, one per entry.
- method_notes: Cytotoxicity against BHK cells assessed as cell viability after 48 to 96 hrs by MTT assay
- Assay type: cell-based, Mesocricetus auratus
- test_conditions: hamster
I only need the number, in µM, no unit after it.

FC(F)(F)c1cccc(NC(=S)Nc2ccccc2Br)c1
59

Incoming: # input compound: CC[C@H]1CC[C@H](c2ccc(NC(=S)Nc3cccc(C(F)(F)F)c3)cc2)CC1 ; wanted: its CC50
Outgoing: 10

Incoming: # input compound: Fc1ccccc1NC(=S)Nc1cccc(C(F)(F)F)c1 ; wanted: its CC50
Outgoing: 54

Incoming: # input compound: CCOC(=O)c1ccc(NC(=S)Nc2cccc(C(F)(F)F)c2)cc1 ; wanted: its CC50
Outgoing: 50

----------
Catalogue of CC50 readings, one per entry.
- method_notes: Cytotoxicity against African green monkey Vero 76 cells assessed as cell viability after 48 to 96 hrs by crystal violet staining
- Format: cell-based
- test_conditions: chlorocebus sabaeus

These recorded examples may help you get a feel for the data.
FC(F)(F)c1cccc(NC(=S)Nc2ccccc2)c1
39 µM
Fc1ccc(NC(=S)Nc2cccc(C(F)(F)F)c2)cc1
40 µM
CCNC(=S)Nc1cccc(C(F)(F)F)c1
> 100 µM
CSCCCNC(=S)Nc1cccc(C(F)(F)F)c1
> 100 µM

Incoming: # input molecule: Nc1nc2c(ncn2COCCO)c(=O)[nH]1 ; wanted: its CC50
Outgoing: 13 µM

----------
- method_notes: Cytotoxicity against BHK cells assessed as cell viability after 48 to 96 hrs by MTT assay
- Assay type: cell-based, Mesocricetus auratus
- test_conditions: hamster
observable: CC50

These recorded examples may help you get a feel for the data.
O=C(NC(=S)Nc1cccc(C(F)(F)F)c1)c1ccccc1
> 100 µM
CSCCCNC(=S)Nc1cccc(C(F)(F)F)c1
> 100 µM
COC(=O)c1ccccc1NC(=S)Nc1cccc(C(F)(F)F)c1
> 100 µM

Read the next record carefully.
Incoming: # input molecule: C[C@@]1(O)[C@H](O)[C@@H](CO)O[C@H]1n1ccc(N)nc1=O ; wanted: its CC50
Outgoing: > 10 µM
